Reported cell viability values for a set of compounds
Tested on: MOLM14
Assay: cell viability relative to vehicle control; higher = less cytotoxic;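 note: after 48 h exposure read by CellTiter-Glo luminescence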
Settings: 10 µM; SRSF2 genotype: SRSF2 wt/wt
// units = %; emit number, no label

-- ask Quick check: cell viability of NC(=O)c1cnc2[nH]ccc2c1N[C@@H]1[C@@H]2CC3C[C@H]1C[C@@](O)(C3)C2 ?
-- reply 9.06

-- ask Need cell viability, item CC=C(C)C(=O)O [S3803 Angelic acid.cdx]
-- reply 100

-- ask So what does the record say about cell viability for CCc1ccc(Cc2ccc3c(c2)[C@]2(OC3)O[C@H](CO)[C@@H](O)[C@H](O)[C@H]2O)cc1 ?
-- reply 82.5

----------
Test system: K562
Experiment: cell viability relative to vehicle control; higher = less cytotoxic
Conditions: 10 µM; SRSF2 genotype: SRSF2 wt/wt
outcomeMeasure: cell viability (%)
Just the number in %, nothing appended.

Example entries begin here.
-- ask Suppose we examine the compound CN1C(CCl)Nc2cc(Cl)c(S(N)(=O)=O)cc2S1(=O)=O (stereo not given) [Methyclothiazide] ; what cell viability value has been reported?
-- reply 98.4

-- ask What measured cell viability goes with CC1CNc2c(cccc2S(=O)(=O)N[C@@H](CCCNC(=N)N)C(=O)N2CC[C@@H](C)C[C@@H]2C(=O)O)C1 (stereo not given in full) [Argatroban] ?
-- reply 94

-- ask Would you mind telling me what cell viability value was observed for COc1ccc(/C=C/c2cc(O)cc(O[C@@H]3O[C@H](CO)[C@@H](O)[C@H](O)[C@H]3O)c2)cc1O [Rhapontin] ?
-- reply 92.3

-- ask Any idea what its cell viability is? The compound is CC(=O)c1ccccc1 [Acetophenone]
-- reply 91.4

-- ask Entry CCCCCCCCCCCCCCCCO [1-Hexadecanol] : reported cell viability = ?
-- reply 98.6

# next compound below
-- ask Item CCOC(=O)C1OC1C(=O)NC(CC(C)C)C(=O)NCCC(C)C (stereo not given) has what recorded cell viability?
-- reply 97.2

----------
Test system: OCI-AML2
Experiment: cell viability relative to vehicle control; higher = less cytotoxic
Settings: 10 µM; SRSF2 genotype: P95H/wt
Structures can show the parent of a compound that is named as a salt.
outcomeMeasure: cell viability (%)
Report the figure in % without appending any unit label.

Examples from the recorded data:
-- ask What value of measured cell viability is listed for Cc1nnc(NS(=O)(=O)c2ccc(N)cc2)s1 ?
-- reply 108

-- ask Given the entry CO[C@@H]1[C@H](OC(=O)/C=C/C=C/C=C/C=C/C(=O)O)CC[C@]2(CO2)[C@H]1[C@@]1(C)O[C@@H]1CC=C(C)C , report its measured cell viability.
-- reply 72.4

-- ask Request the reported cell viability associated with OCC(O)C(O)CO (centres undefined)
-- reply 98.2

-- ask # lookup: cell viability of O=C(NCc1ccc(Oc2ccccc2)cc1)c1nc(-c2cc(Br)c(O)c(Br)c2)no1
-- reply 88.4

---
-- ask Sample O=Cc1ccc(CO)o1 [5-Hydroxymethylfurfural] — what was its cell viability?
-- reply 85.6

-- ask Any idea what its cell viability is? The compound is CCN(CC)CCNC(=O)c1c(C)[nH]c(/C=C2\C(=O)Nc3ccc(-c4csc(-c5ccccc5)n4)cc32)c1C
-- reply 4.03

-- ask Requested field: cell viability. Item: C[n+]1ccccc1C=NO [Pralidoxime Iodide]
-- reply 105

-- ask Suppose we examine the compound CCN(CC)CCOC(=O)C(c1ccccc1)c1ccccc1 [Adiphenine HCl] ; what cell viability value has been reported?
-- reply 92.4

-- ask What does the record list as cell viability for CC1(C)S[C@@H]2[C@H](NC(=O)[C@H](N)c3ccccc3)C(=O)N2[C@H]1C(=O)O [Ampicillin sodium] ?
-- reply 109

----------
Tested on: OCI-AML2
Assay: cell viability relative to vehicle control; higher = less cytotoxic
Settings: 10 µM; SRSF2 genotype: P95H/wt
Structures can show the parent of a compound that is named as a salt.
Listing of recorded cell viability by entry.
State just the number; it will be interpreted in %.

Sample answers from the record:
-- ask # get_value(readout='cell viability', item= NCCOc1cc(C(=O)Nc2cc(OCCN)c3ccccc3n2)nc(C(=O)Nc2cc(OCCN)c3ccccc3n2)c1 [Pyridostatin Trifluoroacetate Salt] )
-- reply 6.12

-- ask Fill in: cell viability of NS(=O)(=O)c1ccccc1 [Benzenesulfonamide] is ___
-- reply 107

-- ask Could you tell me which cell viability is on file for CCCCCCCCCCCCCCCC(=O)N[C@@H](CCSC)C(=O)NCC(=O)N[C@@H](Cc1ccc(O)cc1)C(=O)N[C@@H](CCC(N)=O)C(=O)N[C@@H](CCCCN)C(=O)N[C@@H](CCCCN)C(=O)N[C@@H](CC(C)C)C(=O)N[C@@H](CCCNC(=N)N)C(=O)N[C@@H](CO)C(=O)N[C@@H](CCSC)C(=O)N[C@H](C(=O)N[C@@H](CC(=O)O)C(=O)N[C@@H](CCCCN)C(=O)N[C@@H](Cc1ccc(O)cc1)C(=O)N[C@@H](CCCNC(=N)N)C(=O)N[C@@H](CC(C)C)C(=O)O)[C@@H](C)O ?
-- reply 75.1

-- ask May I ask what cell viability has been recorded for CC(C)(CO)n1cc(C(=O)c2cncc(NC(=O)Cc3ccc(Cl)cn3)c2)c2cnc(N)nc21 ?
-- reply 107

-- ask // cell viability lookup, key: CNC(=O)c1nn(C)c2c1C(C)(C)Cc1cnc(Nc3ccc(N4CCN(C)CC4)cc3)nc1-2
-- reply 13.8

Now consider the entry below.
-- ask // returns reported cell viability for input CCC(=O)O[C@]1(C(=O)CCl)[C@@H](C)C[C@H]2[C@@H]3C[C@H](F)C4=CC(=O)C=C[C@]4(C)[C@@]3(F)[C@@H](O)C[C@@]21C [Halobetasol Propionate]
-- reply 99.3

----------
Tested on: MARIMO
Assay: cell viability relative to vehicle control; higher = less cytotoxic
Conditions: 10 µM; SRSF2 genotype: SRSF2 wt/wt
Where a name gives a salt, the structure may show the parent alone.
Measured cell viability of individual entries
Hi! Could you send only the number? It should be in %, unit omitted.

Worked cases, answers included:
-- ask What value of cell viability has been recorded for this entry: CN(C)C/C=C/C(=O)Nc1cc2c(Nc3ccc(F)c(Cl)c3)ncnc2cc1O[C@H]1CCOC1
-- reply 1.37

-- ask Return reported cell viability; argument: CCOC(=O)N1CCC(CN(Cc2ccc(Cl)cc2)Cc2ccc([N+](=O)[O-])s2)C1 (centres undefined) [Stenabolic (SR9009)]
-- reply 25.5

-- ask Can you share its cell viability? I mean this molecule: CC1=CCC2C(C1)C2(C)C (centres undefined)
-- reply 103

-- ask Param item = O=C1OC(C(O)CO)C([O-])=C1O.[Na+] (centres undefined) [Sodium erythorbate] ; retrieve measured cell viability.
-- reply 107

-- ask // query cell viability value for entry O=C1N=C(N2CCOCC2)CN1c1ccc(Cl)cc1
-- reply 111

-- ask Quick one: cell viability of c1ccc2c(CC3=NCCN3)cccc2c1 [Naphazoline hydrochloride (Naphcon)] ?
-- reply 107

-- ask Value lookup for cell viability; key = Cc1ncc(CCCN(C)C)cc1Nc1ncc2c(n1)-c1ccc(C(F)(F)F)cc1NC(=S)C2
-- reply 44.5

-- ask Sample O=C1NC(=O)C(=Cc2ccc(-c3ccc(F)cc3)o2)S1 (stereo in doubt) — what was its cell viability?
-- reply 92.5

-- ask GET /values?readout=cell viability&item= COc1cnc(NS(=O)(=O)c2ccc(N)cc2)nc1
-- reply 96

-- ask Which cell viability value is on record for C#C[C@]1(O)CC[C@H]2[C@@H]3CCC4=CCCC[C@@H]4[C@H]3C(=C)C[C@@]21CC ?
-- reply 81.7

Continuing:
-- ask Consider the molecule N=C1S/C(=C\c2ccc(-c3ccc4c(c3)C(=O)NC4=O)o2)C(=O)N1c1ccc(Br)cc1 and give its measured cell viability.
-- reply 101

-- ask I am curious: what cell viability value has been reported for Cc1cc(O)c(-c2ccc([C@@H](C)CN(C)C)cc2)c2c1[nH]c(=O)c1sccc12 ?
-- reply 1.17

-- ask What cell viability value was documented for this molecule, O=[N+]([O-])c1ccc(Nc2nc(N3CCOCC3)nc(N3CCOCC3)n2)cc1 ?
-- reply 95.8

-- ask Return reported cell viability; argument: Nc1ncnc2c1c(I)cn2C1OC(CO)C(O)C1O (centres undefined)
-- reply 5.58

-- ask Sample O=C(O)CCCCCCCC(O)C(O)CCCCCCO (centres undefined) — what was its cell viability?
-- reply 112

-- ask Fill in the blank: the reported cell viability of CCCc1cc(C(N)=S)ccn1 [Protionamide (Prothionamide)] is ____.
-- reply 102

----------
System: MARIMO
Experiment: cell viability relative to vehicle control; higher = less cytotoxic
Conditions: 10 µM; SRSF2 genotype: SRSF2 P95H/wt
Counter-ions that a name gives are not always drawn.
outcomeMeasure: cell viability
Please don't drop the unit; write it after the number.

Consider the following illustrative entries.
-- ask Look at this compound and give its reported cell viability. O=C1NC(=O)C(c2ccccc2)(c2ccccc2)N1 [Phenytoin (Lepitoin)]
-- reply 107%

-- ask Recorded cell viability of C[N+](C)(C)C[C@H](O)CC(=O)[O-] , please.
-- reply 99.1%

-- ask Request the reported cell viability associated with CC(S)C(=O)NCC(=O)O (stereo not drawn)
-- reply 105%

More entries:
-- ask Suppose we examine the compound COc1cc2c(cc1OC)CN(C(=O)/C=C/c1c(-c3ccccc3)n(C)c3ncccc13)CC2 ; what cell viability value has been reported?
-- reply 69.1%

-- ask Given the compound CC1(C)CC[C@]2(C)CC[C@]3(C)C(=CC[C@@H]4[C@@]5(C)CC[C@@H](O)[C@](C)(C(=O)O)[C@@H]5CC[C@]43C)[C@@H]2C1 , what is its reported cell viability?
-- reply 97.8%

-- ask Which cell viability value is on record for N=C1CCCN1Cc1[nH]c(=O)[nH]c(=O)c1Cl [Tipiracil hydrochloride] ?
-- reply 109%

-- ask Suppose we examine the compound Cc1nc(-c2ccc(OCC(C)C)c(C#N)c2)sc1C(=O)O ; what cell viability value has been reported?
-- reply 102%

-- ask For the compound Cc1ccc2nc(NCCN)c3ncc(C)n3c2c1 , what cell viability is on record?
-- reply 7.18%

-- ask Need cell viability of Nc1ccc(/C=C/C(=O)NCc2cc3cc(-c4ccc(C(=O)N5CCC(F)(F)CC5)cc4)cc(-c4ccc(F)cc4)c3o2)cn1 , thanks.
-- reply 10%

-- ask Report cell viability for C[C@@H]1CCCC2=CC(=O)[C@@H]3[C@@H](C3(C)C)[C@]21C please.
-- reply 95.8%

-- ask Reported cell viability, compound CC1(C)CC[C@]2(C(=O)O)CC[C@]3(C)C(=CC[C@@H]4[C@@]5(C)CC[C@H](O[C@@H]6O[C@H](C(=O)O)[C@@H](O)[C@H](O[C@@H]7OC[C@@H](O)[C@H](O)[C@H]7O)[C@H]6O)C(C)(C)[C@@H]5CC[C@]43C)[C@@H]2C1 : ____
-- reply 103%

-- ask Return reported cell viability; argument: O=S(=O)(NCCNCC=Cc1ccc(Br)cc1)c1cccc2cnccc12
-- reply 61.2%

-- ask Name the reported cell viability value associated with the compound CC1OC(OC2C(CO)OC(OCC3OC(OC(=O)C45CCC(C)(C)CC4C4=CCC6C7(C)CCC(OC8OCC(O)C(O)C8O)C(C)(CO)C7CCC6(C)C4(C)CC5)C(O)C(O)C3O)C(O)C2O)C(O)C(O)C1O (stereo not drawn) [Hederacoside D]
-- reply 95.7%

-- ask Any idea what cell viability was measured for Cn1cc(/C=C2\C(=O)Nc3cccnc32)c2ccccc21 ?
-- reply 91.2%

-- ask // returns reported cell viability for input Nc1nccc(Oc2ccc3c(C(=O)Nc4cccc(C(F)(F)F)c4)cccc3c2)n1
-- reply 109%

-- ask What does the record list as cell viability for COc1cc2nc(N3CCN(C(=O)C4CCCO4)CC3)nc(N)c2cc1OC (stereo not drawn) [Terazosin HCl] ?
-- reply 99.5%

-- ask Reported cell viability, compound COc1cc2nccc(Oc3ccc(NC(=O)Nc4cc(C)on4)c(Cl)c3)c2cc1OC : ____
-- reply 56.2%

-- ask Entry COc1ccc2cc3[n+](cc2c1O)CCc1cc2c(cc1-3)OCO2 has what cell viability?
-- reply 112%

-- ask Can you look up the measured cell viability of CC(C(=O)O)C(=O)O [Methylmalonate] for me?
-- reply 98.2%

-- ask Any idea what its cell viability is? The compound is Nc1cccc2c1CN(C1CCC(=O)NC1=O)C2=O (stereo not drawn) [Lenalidomide (CC-5013)]
-- reply 97.1%

-- ask GET /values?readout=cell viability&item= O=C(Nc1cccc2c(=O)cc(-c3nnn[nH]3)oc12)c1ccc(OCCCCc2ccccc2)cc1
-- reply 106%

-- ask Item O=C(Nc1cc(C(F)(F)F)cc(C(F)(F)F)c1)c1cc(Cl)ccc1O has what recorded cell viability?
-- reply 19%

-- ask What does the record list as cell viability for C=C1[C@H](CO)[C@@H](O)C[C@@H]1n1cnc2c(=O)[nH]c(N)nc21 [Entecavir hydrate] ?
-- reply 101%

-- ask // lookup cell viability for CC(=O)OC(CC(C)C1=C2CC(O)C3C4(C)CCC(=O)C(C)(C)C4CCC3(C)C2(C)CC1)C1OC1(C)C (stereo not drawn) [Alisol B Acetate]
-- reply 68.4%
